tested on: HeLa; assay: Cytotoxicity against human HeLa cells after 72 hrs by MTT assay; format: functional, cell-based; details: Homo sapiens, HeLa, 72 h; read-out: IC50
Rule: IC50 below 100 µM gives true, anything at or above gives false.

// below: answered molecules
[
  {
    "smiles": "COc1ccc(Nc2c(-c3ccc(OC)cc3)cnc3ccccc23)cc1",
    "class.label": "false"
  },
  {
    "smiles": "COc1ccc(Nc2ccccn2)cc1",
    "class.label": "false"
  },
  {
    "smiles": "COc1cccc(Nc2cc(-c3cccc(C(F)(F)F)c3)ccn2)c1",
    "class.label": "false"
  },
  {
    "smiles": "Fc1ccc(Nc2ccc3ccccc3n2)cc1",
    "class.label": "true"
  }
]

Incoming: Is IC50 strictly under 100 µM for the entry Cc1ccc(-c2ccnc(Nc3ccc(F)cc3)c2)cc1 ?
Outgoing: false

Incoming: Now the same for CCc1ccc(Nc2cc(-c3cccc(C(F)(F)F)c3)ccn2)cc1
Outgoing: false

Incoming: Cool, now CCc1ccc(Nc2nc3ccccc3cc2-c2ccccc2)cc1
Outgoing: false

Incoming: Lookup COc1ccc(Nc2cccnc2)cc1
Outgoing: false

The origin of these recorded values is ChEMBL document CHEMBL2069279.
